- TARGET OR TEST SYSTEM: Transient receptor potential cation channel subfamily V member 3 (Homo sapiens) (UniProt Q8NET8)
- Sequence (Q8NET8 whole entry): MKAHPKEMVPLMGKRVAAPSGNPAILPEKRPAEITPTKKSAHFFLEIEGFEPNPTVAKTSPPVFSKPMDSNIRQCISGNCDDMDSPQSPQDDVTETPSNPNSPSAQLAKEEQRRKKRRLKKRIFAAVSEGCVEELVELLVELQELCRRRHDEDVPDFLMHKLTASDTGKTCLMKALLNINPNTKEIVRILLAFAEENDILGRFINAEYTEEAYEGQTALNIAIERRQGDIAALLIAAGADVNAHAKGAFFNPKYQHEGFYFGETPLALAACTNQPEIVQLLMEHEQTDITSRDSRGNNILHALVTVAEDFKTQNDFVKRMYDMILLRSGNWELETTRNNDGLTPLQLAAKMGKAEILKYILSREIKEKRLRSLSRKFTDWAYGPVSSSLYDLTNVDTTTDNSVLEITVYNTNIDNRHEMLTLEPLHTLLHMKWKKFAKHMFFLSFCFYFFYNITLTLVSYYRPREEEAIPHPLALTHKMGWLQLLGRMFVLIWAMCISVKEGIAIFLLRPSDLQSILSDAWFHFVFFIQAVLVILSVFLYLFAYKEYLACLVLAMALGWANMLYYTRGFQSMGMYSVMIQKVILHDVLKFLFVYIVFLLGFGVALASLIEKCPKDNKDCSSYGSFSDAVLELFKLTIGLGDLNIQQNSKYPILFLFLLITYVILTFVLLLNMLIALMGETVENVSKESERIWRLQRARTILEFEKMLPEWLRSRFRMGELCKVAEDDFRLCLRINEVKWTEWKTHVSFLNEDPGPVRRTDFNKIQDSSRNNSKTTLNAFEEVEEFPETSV
- ASSAY SUMMARY: Antagonist activity at human TRPV3 expressed in recombinant HEK293 cells assessed as inhibition of 2-APB induced calcium flux by FLIPR analysis
- Format: cell-based
MEASURED METRIC: log10 Kb (log10 of the value in µM)
Response schema: value (number) is log10 of Kb in units of µM.

* C[C@]1(O)C[C@@](c2cccc(C(F)(F)F)c2)([C@H](O)c2ccccn2)C1 | -0.52
* O[C@H](c1ccccn1)[C@@]1(c2ccc(Cl)c(Cl)c2)CCCO1 | -1.37
* O[C@H](c1ccccn1)[C@]1(c2cc(C(F)(F)F)ccn2)C[C@@H](O)C1 | -0.49
* O[C@@]1(c2ccccn2)CC[C@H](c2ccc(C(F)(F)F)cc2)C1 | -0.21
* OC(c1ccccn1)C1(c2ccc(Cl)c(Cl)c2)CCOC1 (stereo not given) | -0.20
* O[C@H](c1ccccn1)[C@]1(c2ccnc(C(F)(F)F)c2)C[C@@H](O)C1 | -0.28
* C[C@]1(c2ccc(OC(F)(F)F)cc2)C[C@@](O)(c2ccccn2)CO1 | 0.39
* O[C@H](c1ccccn1)C1(c2ccc(Cl)c(Cl)c2)CC(F)(F)C1 | -1.10
* C[C@]1(O)C[C@](c2ccc(OC(F)(F)F)cc2)([C@H](O)c2ccccn2)C1 | 0.18
* O[C@H](c1ccccn1)C1(c2ccc(OC(F)(F)F)cc2)CC(F)(F)C1 | -1.40

Batch: log10 Kb for all items listed.
1. O[C@H](c1ccccn1)[C@]1(c2cccc(OC(F)(F)F)c2)C[C@H](O)C1
2. O[C@H](c1ccccn1)[C@]1(c2cc(C(F)(F)F)ccn2)C[C@H](O)C1
3. O[C@H](c1ccccn1)[C@]1(c2ccnc(C(F)(F)F)c2)C[C@H](O)C1
4. O[C@H](c1ccccn1)C1(c2cccc(OC(F)(F)F)c2)CCC1

Output:
1. -1.40
2. -0.57
3. -1.22
4. -1.10
